# ASSAY_REMARKS: Solubility of the compound in phosphate buffer at pH 6.8 after 24 hrs at 25 degC by LC-MS analysis
# Format: physicochemical
READOUT: solubility at 24 h

Qu. Which solubility at 24 h is reported for this compound? CNc1ccc(-c2nc(=O)n(CC[C@@H]3CCCO3)c3c2oc2ncc(-c4cnn(C)c4)cc23)cn1
Ans. > 928 µg/mL

Qu. Similarly, CNc1ccc(-c2nc(=O)n(CCCOC)c3c2oc2ccc(-c4cnn(C)c4)cc23)cn1 ?
Ans. > 1000 µg/mL

Qu. Similarly, COCCCn1c(=O)nc(-c2ccc(N3CCN(C)CC3)nc2)c2oc3ccc(-c4cnn(C)c4)cc3c21 ?
Ans. > 1000 µg/mL

Qu. Similarly, CNc1ccc(-c2nc(=O)n(CC[C@H]3CCCO3)c3c2oc2ncc(-c4cnn(C)c4)cc23)cn1 ?
Ans. 1.2 µg/mL

Qu. Similarly, CCCCCn1c(=O)nc(-c2ccc(NC)nc2)c2oc3ccc(-c4cnn(C)c4)cc3c21 ?
Ans. 0.27 µg/mL

Qu. Similarly, CNc1ccc(-c2nc(=O)n(CCC3CCCO3)c3c2oc2ccc(-c4cnn(C)c4)cc23)cn1 (racemic) ?
Ans. > 984 µg/mL

====

# ASSAY_REMARKS: Solubility of the compound in phosphate buffer at pH 2.0 after 24 hrs at 25 degC by LC-MS analysis
# Type: physicochemical
READOUT: solubility at 24 h

Qu. Which solubility at 24 h is reported for this compound? COCCCn1c(=O)nc(-c2ccc(N3CCN(C)CC3)nc2)c2oc3ccc(-c4cnn(C)c4)cc3c21
Ans. > 1000 µg/mL

Qu. Similarly, CNc1ccc(-c2nc(=O)n(CCC3CCCO3)c3c2oc2ccc(-c4cnn(C)c4)cc23)cn1 (racemic) ?
Ans. > 1000 µg/mL

Qu. Similarly, CNc1ccc(-c2nc(=O)n(CC[C@@H]3CCCO3)c3c2oc2ncc(-c4cnn(C)c4)cc23)cn1 ?
Ans. > 844 µg/mL

Qu. Similarly, CNc1ccc(-c2nc(=O)n(CC[C@H]3CCCO3)c3c2oc2ncc(-c4cnn(C)c4)cc23)cn1 ?
Ans. > 871 µg/mL

Qu. Similarly, CCCCCn1c(=O)nc(-c2ccc(NC)nc2)c2oc3ccc(-c4cnn(C)c4)cc3c21 ?
Ans. > 1000 µg/mL

Qu. Similarly, CNc1ccc(-c2nc(=O)n(CCCOC)c3c2oc2ccc(-c4cnn(C)c4)cc23)cn1 ?
Ans. > 1000 µg/mL

====

# ASSAY_REMARKS: Permeability from apical to basolateral side of human Caco2 cells
# Type: ADME, cell-based
# RUN_CONDITIONS: Caco-2, read-out: permeability
READOUT: Papp A→B

Qu. Which Papp A→B is reported for this compound? COCCCn1c(=O)nc(-c2ccc(N3CCN(C4CC4)CC3)cc2)c2oc3ccc(Cl)cc3c21
Ans. 8.9 ×10⁻⁶ cm/s

Qu. Similarly, CNc1ccc(-c2nc(=O)n(CCCOC)c3c2oc2ccc(-c4cnn(C)c4)cc23)cn1 ?
Ans. 1.6 ×10⁻⁶ cm/s

Qu. Similarly, COCCCn1c(=O)nc(-c2ccc(N3CCN(C(C)C)CC3)cc2)c2oc3ccc(Cl)cc3c21 ?
Ans. 2.7 ×10⁻⁶ cm/s

Qu. Similarly, COCCCn1c(=O)nc(-c2ccc(N3CCN(C)CC3)nc2)c2oc3ccc(-c4cnn(C)c4)cc3c21 ?
Ans. 0.4 ×10⁻⁶ cm/s

Qu. Similarly, CCCCCn1c(=O)nc(-c2ccc(NC)nc2)c2oc3ccc(-c4cnn(C)c4)cc3c21 ?
Ans. 9.8 ×10⁻⁶ cm/s

Reference source: ChEMBL document CHEMBL2380228
